# SUBJECT OF TEST: FLT3(N841I) (Homo sapiens, UniProt P36888, N841I)
# Construct: purchased Eurofins DiscoverX KINOMEscan (scanTK)
# EXPERIMENT NOTES: KINOMEscan ScanTK
# Assay type: binding
# ASSAY CONDITIONS: @1000nM, read-out: %Control
Task for the reader: assign each of the following compounds its reported remaining binding at 1 µM.
Answer in %, number only, no unit symbol.

For the compound CNC(=O)c1cnc(S(C)(=O)=O)nc1N1CCCC(n2nc(-c3ccc(Oc4ccccc4)cc3)c3c(N)ncnc32)C1 (stereo not shown) , what remaining binding at 1 µM is on record? 56

For the compound CCOC(=O)c1cnc(S(C)(=O)=O)nc1N1CCC[C@@H](n2nc(-c3ccc(Oc4ccccc4)cc3)c3c(N)ncnc32)C1 , what remaining binding at 1 µM is on record? 73

For the compound COC(=O)c1cnc(S(C)(=O)=O)nc1N1CCCC(n2nc(-c3ccc(Oc4ccccc4)cc3)c3c(N)ncnc32)C1 (stereo not shown) , what remaining binding at 1 µM is on record? 62

For the compound Cc1cnc(S(C)(=O)=O)nc1N1CCCC(n2nc(-c3ccc(Oc4ccccc4)cc3)c3c(N)ncnc32)C1 (stereo not shown) , what remaining binding at 1 µM is on record? 59

====

Task for the reader: assign each of the following molecules its reported remaining binding at 1 µM.
# SUBJECT OF TEST: VEGFR2 (Homo sapiens, UniProt P35968)
# Construct: purchased Eurofins DiscoverX KINOMEscan (scanTK)
# Sequence (P35968 20-1356): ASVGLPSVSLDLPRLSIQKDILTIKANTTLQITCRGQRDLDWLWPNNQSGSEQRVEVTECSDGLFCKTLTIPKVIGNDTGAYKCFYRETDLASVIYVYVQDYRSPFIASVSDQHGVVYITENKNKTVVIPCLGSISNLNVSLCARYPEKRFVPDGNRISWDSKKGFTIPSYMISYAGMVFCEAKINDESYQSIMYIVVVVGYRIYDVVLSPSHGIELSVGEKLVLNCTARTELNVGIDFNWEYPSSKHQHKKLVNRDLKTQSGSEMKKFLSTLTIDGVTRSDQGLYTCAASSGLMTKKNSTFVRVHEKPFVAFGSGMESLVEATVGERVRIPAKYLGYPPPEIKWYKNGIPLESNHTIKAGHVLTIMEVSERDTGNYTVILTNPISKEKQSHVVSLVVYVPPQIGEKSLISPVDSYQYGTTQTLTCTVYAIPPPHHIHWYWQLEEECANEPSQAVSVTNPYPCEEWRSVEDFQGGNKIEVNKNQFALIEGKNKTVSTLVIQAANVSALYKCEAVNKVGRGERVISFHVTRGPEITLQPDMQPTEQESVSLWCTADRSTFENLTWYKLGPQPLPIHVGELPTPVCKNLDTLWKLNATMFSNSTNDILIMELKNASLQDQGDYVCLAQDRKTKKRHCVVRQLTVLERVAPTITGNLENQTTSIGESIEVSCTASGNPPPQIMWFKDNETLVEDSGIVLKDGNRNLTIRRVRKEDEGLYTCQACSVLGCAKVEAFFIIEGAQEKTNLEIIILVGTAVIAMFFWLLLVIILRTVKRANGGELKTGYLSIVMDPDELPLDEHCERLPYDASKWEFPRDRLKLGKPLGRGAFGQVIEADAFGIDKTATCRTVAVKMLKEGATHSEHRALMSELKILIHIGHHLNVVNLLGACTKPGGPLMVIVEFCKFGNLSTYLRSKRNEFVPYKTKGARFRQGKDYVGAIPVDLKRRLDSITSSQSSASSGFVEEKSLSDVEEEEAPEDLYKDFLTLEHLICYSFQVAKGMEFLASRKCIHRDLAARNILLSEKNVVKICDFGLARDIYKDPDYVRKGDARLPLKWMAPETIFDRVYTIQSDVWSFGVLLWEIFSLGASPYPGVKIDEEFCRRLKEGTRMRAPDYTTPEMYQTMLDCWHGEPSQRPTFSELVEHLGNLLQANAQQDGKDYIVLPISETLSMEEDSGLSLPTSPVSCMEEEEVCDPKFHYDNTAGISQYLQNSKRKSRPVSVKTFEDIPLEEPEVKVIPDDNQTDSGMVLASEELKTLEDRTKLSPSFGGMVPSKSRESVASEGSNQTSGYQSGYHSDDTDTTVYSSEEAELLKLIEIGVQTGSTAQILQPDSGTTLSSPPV
# EXPERIMENT NOTES: KINOMEscan ScanTK
# Type: binding
# ASSAY CONDITIONS: @1000nM, read-out: %Control
Answer in %, number only, no unit symbol.

For the molecule Cc1cnc(S(C)(=O)=O)nc1N1CCCC(n2nc(-c3ccc(Oc4ccccc4)cc3)c3c(N)ncnc32)C1 (centres unmarked) , what remaining binding at 1 µM is on record? 90

For the molecule CNC(=O)c1cnc(S(C)(=O)=O)nc1N1CCCC(n2nc(-c3ccc(Oc4ccccc4)cc3)c3c(N)ncnc32)C1 (centres unmarked) , what remaining binding at 1 µM is on record? 88

For the molecule C=CC(=O)N1CCC[C@@H](n2nc(-c3ccc(Oc4ccccc4)cc3)c3c(N)ncnc32)C1 [Compound 1g, Ibrutinib, reference compound] , what remaining binding at 1 µM is on record? 71

For the molecule COC(=O)c1cnc(S(C)(=O)=O)nc1N1CCCC(n2nc(-c3ccc(Oc4ccccc4)cc3)c3c(N)ncnc32)C1 (centres unmarked) , what remaining binding at 1 µM is on record? 90

For the molecule CCOC(=O)c1cnc(S(C)(=O)=O)nc1N1CCC[C@@H](n2nc(-c3ccc(Oc4ccccc4)cc3)c3c(N)ncnc32)C1 , what remaining binding at 1 µM is on record? 94

====

# SUBJECT OF TEST: RET(V804L) (Homo sapiens, UniProt P07949, V804L)
# Construct: purchased Eurofins DiscoverX KINOMEscan (scanTK)
# Sequence (P07949 29-1114 V804L): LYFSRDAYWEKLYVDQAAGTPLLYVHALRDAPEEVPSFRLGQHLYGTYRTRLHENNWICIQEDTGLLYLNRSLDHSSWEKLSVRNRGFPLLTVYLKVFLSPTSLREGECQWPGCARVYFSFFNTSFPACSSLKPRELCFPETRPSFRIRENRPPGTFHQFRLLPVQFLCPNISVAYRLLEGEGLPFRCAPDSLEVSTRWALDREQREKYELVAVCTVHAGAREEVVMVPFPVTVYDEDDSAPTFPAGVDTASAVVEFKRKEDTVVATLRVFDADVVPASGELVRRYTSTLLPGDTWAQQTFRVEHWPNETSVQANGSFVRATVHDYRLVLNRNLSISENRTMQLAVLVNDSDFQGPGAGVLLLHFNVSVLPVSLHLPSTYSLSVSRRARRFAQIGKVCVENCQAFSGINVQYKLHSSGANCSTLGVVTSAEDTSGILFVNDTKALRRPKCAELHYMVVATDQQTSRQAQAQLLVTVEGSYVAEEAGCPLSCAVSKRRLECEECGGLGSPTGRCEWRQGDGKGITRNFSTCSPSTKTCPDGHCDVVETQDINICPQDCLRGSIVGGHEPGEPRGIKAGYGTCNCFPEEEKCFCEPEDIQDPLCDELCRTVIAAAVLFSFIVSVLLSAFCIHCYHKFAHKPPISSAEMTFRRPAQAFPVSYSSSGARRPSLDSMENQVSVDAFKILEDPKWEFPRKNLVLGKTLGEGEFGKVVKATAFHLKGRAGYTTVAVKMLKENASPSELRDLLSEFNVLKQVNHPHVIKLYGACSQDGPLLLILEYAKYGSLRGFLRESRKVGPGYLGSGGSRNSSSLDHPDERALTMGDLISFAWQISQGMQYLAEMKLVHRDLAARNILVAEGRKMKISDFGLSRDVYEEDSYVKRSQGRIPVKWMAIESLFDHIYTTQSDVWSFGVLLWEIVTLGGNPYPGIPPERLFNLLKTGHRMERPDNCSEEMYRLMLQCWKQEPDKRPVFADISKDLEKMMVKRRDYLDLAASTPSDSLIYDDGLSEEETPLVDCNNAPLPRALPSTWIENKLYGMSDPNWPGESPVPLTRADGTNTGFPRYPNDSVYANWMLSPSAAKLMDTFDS
# EXPERIMENT NOTES: KINOMEscan ScanTK
# Type: binding
# ASSAY CONDITIONS: read-out: %Control @1000nM
ATTRIBUTE MEASURED: remaining binding at 1 µM (%)
Answer in %, number only, no unit symbol.

For the molecule COC(=O)c1cnc(S(C)(=O)=O)nc1N1CCCC(n2nc(-c3ccc(Oc4ccccc4)cc3)c3c(N)ncnc32)C1 (stereo not shown) , what remaining binding at 1 µM is on record? 90

For the molecule CNC(=O)c1cnc(S(C)(=O)=O)nc1N1CCCC(n2nc(-c3ccc(Oc4ccccc4)cc3)c3c(N)ncnc32)C1 (stereo not shown) , what remaining binding at 1 µM is on record? 93

For the molecule Cc1cnc(S(C)(=O)=O)nc1N1CCCC(n2nc(-c3ccc(Oc4ccccc4)cc3)c3c(N)ncnc32)C1 (stereo not shown) , what remaining binding at 1 µM is on record? 89

For the molecule CCOC(=O)c1cnc(S(C)(=O)=O)nc1N1CCC[C@@H](n2nc(-c3ccc(Oc4ccccc4)cc3)c3c(N)ncnc32)C1 , what remaining binding at 1 µM is on record? 100

This collection of values is drawn from paper PMC11345841.
